Target: T1, human LTBP1-proTGFβ1 complex (human, UniProt Q14766 347-1721; P01137 30-390)
T1 construct: Large latent complex: one presenting molecule disulfide-linked to a proTGFβ1 dimer; also called Hu LTBP1-proTGFβ1; huLTBP1 proTGFβ1
T1 sequence (Q14766 347-1721 limits assumed, chain 1 of 2): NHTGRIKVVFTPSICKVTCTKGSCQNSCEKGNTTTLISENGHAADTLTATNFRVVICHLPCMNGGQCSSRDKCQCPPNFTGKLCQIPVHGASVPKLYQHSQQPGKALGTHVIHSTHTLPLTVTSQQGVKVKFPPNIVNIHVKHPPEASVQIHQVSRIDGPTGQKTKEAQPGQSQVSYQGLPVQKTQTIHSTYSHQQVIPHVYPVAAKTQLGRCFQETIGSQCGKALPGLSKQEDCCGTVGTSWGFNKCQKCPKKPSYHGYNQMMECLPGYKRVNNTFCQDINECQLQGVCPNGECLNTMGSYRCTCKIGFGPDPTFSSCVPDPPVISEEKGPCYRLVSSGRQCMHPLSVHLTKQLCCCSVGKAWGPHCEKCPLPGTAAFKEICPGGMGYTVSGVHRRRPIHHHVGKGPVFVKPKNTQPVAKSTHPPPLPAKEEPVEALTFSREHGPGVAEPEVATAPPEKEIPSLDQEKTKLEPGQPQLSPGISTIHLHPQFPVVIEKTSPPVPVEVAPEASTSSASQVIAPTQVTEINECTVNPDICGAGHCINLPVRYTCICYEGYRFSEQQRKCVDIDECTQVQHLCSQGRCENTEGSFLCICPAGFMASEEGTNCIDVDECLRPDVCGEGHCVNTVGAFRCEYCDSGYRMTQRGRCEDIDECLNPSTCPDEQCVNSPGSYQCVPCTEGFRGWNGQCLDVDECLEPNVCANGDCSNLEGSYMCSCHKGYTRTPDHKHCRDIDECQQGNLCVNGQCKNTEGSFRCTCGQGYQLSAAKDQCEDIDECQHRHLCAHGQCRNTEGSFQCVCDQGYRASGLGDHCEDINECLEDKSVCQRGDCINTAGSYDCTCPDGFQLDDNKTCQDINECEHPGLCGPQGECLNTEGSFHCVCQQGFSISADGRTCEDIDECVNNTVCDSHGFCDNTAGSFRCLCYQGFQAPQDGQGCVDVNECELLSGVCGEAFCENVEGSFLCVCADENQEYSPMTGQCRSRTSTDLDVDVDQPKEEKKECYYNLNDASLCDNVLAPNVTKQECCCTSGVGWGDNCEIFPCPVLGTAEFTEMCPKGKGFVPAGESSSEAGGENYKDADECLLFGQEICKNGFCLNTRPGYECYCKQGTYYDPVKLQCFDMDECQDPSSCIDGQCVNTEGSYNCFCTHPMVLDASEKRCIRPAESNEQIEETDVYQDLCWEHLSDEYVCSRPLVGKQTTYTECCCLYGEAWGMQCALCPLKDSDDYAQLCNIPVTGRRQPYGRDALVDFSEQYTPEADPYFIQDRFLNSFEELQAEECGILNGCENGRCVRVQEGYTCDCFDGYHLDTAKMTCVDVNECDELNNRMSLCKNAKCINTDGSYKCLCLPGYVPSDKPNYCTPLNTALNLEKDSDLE
T1 sequence (P01137 30-390 limits assumed, chain 2 of 2): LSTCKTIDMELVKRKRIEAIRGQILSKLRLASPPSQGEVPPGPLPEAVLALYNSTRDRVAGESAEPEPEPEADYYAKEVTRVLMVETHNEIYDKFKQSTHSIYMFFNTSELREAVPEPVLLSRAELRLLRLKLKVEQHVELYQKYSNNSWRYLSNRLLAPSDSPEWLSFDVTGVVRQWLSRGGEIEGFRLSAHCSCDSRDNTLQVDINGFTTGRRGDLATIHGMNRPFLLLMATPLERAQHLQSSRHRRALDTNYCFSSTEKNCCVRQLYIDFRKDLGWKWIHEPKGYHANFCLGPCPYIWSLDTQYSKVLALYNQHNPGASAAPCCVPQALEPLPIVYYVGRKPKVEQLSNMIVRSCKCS
Assay: SPR Biacore 8K, Fab over captured antigen
test.readout: koff (s⁻¹)
Reply numerically in s⁻¹, unit not repeated.

Which koff is listed for SR-AB59-HuFab (Fab, V domains shown, Human Fab; also called SR-AB59 Fab) VH: QVQLVESGGGVVQPGRSLRLSCAASGFTFRSYVMHWVRQAPGKGLEWVAVISHEGSGKYYADSVKGRFTISRDNSKNTLYLQMNSLRAEDTAVYYCALPRIAARRGGFGTWGQGTLVTVSS VL: NFMLTQPHSVSESPGKTVTISCTRSSGNIDYNYVQWYQQRPGSSPTTVIYEDNVRPSGVPDRFSGSIDSSSNSASLTISGLKTEDEADYYCQSYDYDNQAVVFGGGTKLTVL ?
0.00013

Query (binder): SR-AB53-HuFab (Fab, V domains shown, Human Fab; also called SR-AB53 Fab) VH: QVQLVESGGGVVQPGRSLRLSCAASGFTFRSYVMHWVRQAPGKGLEWVAVISHEGSGKYYADSVKGRFTISRDNSKNTLYLQMNSLRAEDTAVYYCARPRIAARRGGFGTWGQGTLVTVSS VL: NFMLTQPHSVSESPGKTVTISCTRSSGNIDYNYVQWYQQRPGSSPTTVIYEDNVRPSGVPDRFSGSIDSSSNSASLTISGLKTEDEADYYCQGYDWDTQGVVFGGGTKLTVL ; field requested: koff
0.000128

Would you kindly look at the next entry?
Record request: koff value, item SR-AB46-HuFab (Fab, V domains shown, Human Fab; also called SR-AB46 Fab) VH: QVQLVESGGGVVQPGRSLRLSCAASGFTFRSYVMHWVRQAPGKGLEWVAVISHEGSGKYYADSVKGRFTISRDNSKNTLYLQMNSLRAEDTAVYYCARPRIAARRGGFGSWGQGTLVTVSS VL: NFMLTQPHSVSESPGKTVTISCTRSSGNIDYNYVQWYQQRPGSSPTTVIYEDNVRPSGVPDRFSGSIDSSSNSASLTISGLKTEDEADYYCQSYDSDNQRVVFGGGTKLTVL
0.00011
